experiment: Preliminary experiment: effect of NC-siRNA on pharmacokinetics of TP in mice; assay type: in vivo; conditions: C57, mouse, plasma, iv, 1 mg/kg, mice, TP 1.0 mg/kg + saline, plasma
readout: Cmax (ng/mL)
The answer is to be given in ng/mL; state only the numeric part.

Look up Cmax: CC(C)[C@]12O[C@H]1[C@@H]1O[C@]13[C@]1(O[C@H]1C[C@H]1C4=C(CC[C@@]13C)C(=O)OC4)[C@@H]2O [TP, Triptolide]
351

====

biological target: P-gp (Mus musculus); construct: from tissue; host or cells: whole living mice (in vivo, intravenous digoxin 1 mg/kg after NC-siRNA or mdr1a-1 siRNA); experiment: P-gp function in knockdown mice assessed by digoxin plasma pharmacokinetics; type: in vivo; conditions: iv, 1 mg/kg, digoxin 1 mg/kg injection, mdr1a-1 siRNA iv 2 days prior
Sequence (P21447 whole entry): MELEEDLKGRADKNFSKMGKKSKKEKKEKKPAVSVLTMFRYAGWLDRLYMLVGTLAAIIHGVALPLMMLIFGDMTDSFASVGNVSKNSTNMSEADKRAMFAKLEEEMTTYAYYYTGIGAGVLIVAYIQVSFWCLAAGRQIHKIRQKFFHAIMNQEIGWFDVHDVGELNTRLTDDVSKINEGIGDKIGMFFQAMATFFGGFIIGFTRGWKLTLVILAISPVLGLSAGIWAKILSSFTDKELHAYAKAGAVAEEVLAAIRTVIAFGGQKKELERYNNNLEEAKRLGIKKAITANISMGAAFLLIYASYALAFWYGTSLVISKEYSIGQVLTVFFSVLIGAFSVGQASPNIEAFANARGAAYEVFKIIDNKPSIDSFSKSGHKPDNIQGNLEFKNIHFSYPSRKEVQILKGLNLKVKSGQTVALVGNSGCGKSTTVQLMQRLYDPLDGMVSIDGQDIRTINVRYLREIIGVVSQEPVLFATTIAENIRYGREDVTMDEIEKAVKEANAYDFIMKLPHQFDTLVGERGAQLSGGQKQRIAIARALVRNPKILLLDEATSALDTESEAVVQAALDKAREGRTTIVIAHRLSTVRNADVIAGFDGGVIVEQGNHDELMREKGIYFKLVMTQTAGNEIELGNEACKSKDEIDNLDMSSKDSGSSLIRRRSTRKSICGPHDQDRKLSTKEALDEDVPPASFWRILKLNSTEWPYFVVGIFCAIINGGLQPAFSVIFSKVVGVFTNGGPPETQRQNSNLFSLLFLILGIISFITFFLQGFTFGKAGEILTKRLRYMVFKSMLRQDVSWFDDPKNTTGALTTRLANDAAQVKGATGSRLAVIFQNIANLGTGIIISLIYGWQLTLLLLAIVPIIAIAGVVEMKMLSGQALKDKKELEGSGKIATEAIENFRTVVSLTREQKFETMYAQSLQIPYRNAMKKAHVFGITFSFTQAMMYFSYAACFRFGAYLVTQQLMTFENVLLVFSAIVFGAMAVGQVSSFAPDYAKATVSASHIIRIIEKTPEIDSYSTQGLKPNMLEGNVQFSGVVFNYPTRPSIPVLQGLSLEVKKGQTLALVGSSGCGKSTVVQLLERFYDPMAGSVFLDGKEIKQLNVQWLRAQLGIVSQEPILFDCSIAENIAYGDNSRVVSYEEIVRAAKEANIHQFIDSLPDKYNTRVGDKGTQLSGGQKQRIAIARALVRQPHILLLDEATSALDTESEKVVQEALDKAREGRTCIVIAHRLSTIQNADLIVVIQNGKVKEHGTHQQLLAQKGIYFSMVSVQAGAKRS
readout: clearance (mL/min/kg)
The answer is to be given in mL/min/kg; state only the numeric part.

GET /values?readout=clearance&system=P-gp (Mus musculus)&item= `C[C@H]1O[C@@H](O[C@H]2[C@@H](O)C[C@H](O[C@H]3[C@@H](O)C[C@H](O[C@H]4CC[C@@]5(C)[C@H](CC[C@@H]6[C@@H]5C[C@@H](O)[C@]5(C)[C@@H](C7=CC(=O)OC7)CC[C@]65O)C4)O[C@@H]3C)O[C@@H]2C)C[C@H](O)[C@@H]1O`
1.66
